- System: UO-31 renal
- test_protocol: NCI tumour cell line growth inhibition, 48 h; in the data active = GI50 below about 0.43 µM; inactive = the rest
Answer with one of the outcomes active, inactive

Recorded call for NC(CSC(c1ccccc1)(c1ccccc1)c1ccc(F)cc1)C(=O)O (stereo not given) ?
inactive

Recorded call for "CCc1nn2ncccc2c1-c1ccnc(NC2CC2)n1" ?
inactive

Recorded call for CC12OC(C(=O)C13CCC3)C1C(=O)c3ccc4c(ccc5ccccc54)c3C(=O)C12 (stereo not given) ?
inactive

Recorded call for COc1ccc(-c2nsc3c2NC(=O)CC3c2cccc(Cl)c2)cc1 (stereo not given) ?
inactive

Recorded call for "CCOc1ccc(C(C)=O)cc1NC(=O)c1cccc(-c2nnn(CC)n2)c1" ?
inactive

Recorded call for "CC(C)(C)c1nc(-c2cccc(NS(=O)(=O)c3c(F)cccc3F)c2F)c(-c2ccnc(N)n2)s1" ?
inactive

Recorded call for "Cc1ccc(O)c(NC2=C(Cl)C(=O)N(Cc3ccccc3)C2=O)c1" ?
inactive

Recorded call for "O=C(O)Cn1ccc2ccccc21" ?
inactive

Recorded call for "COc1ccc2c(c1)O/C(=C\c1cccc(OCC(=O)Nc3nc(C)c(C)s3)c1)C2=O" ?
inactive

Recorded call for "COc1cc(Nc2ncnc(Nc3ccc4c(n3)NC(=O)C(C)(C)O4)n2)cc(OC)c1OC" ?
active

Recorded call for "Cn1cc(C2=C(c3ccccc3C(F)(F)F)C(=O)NC2=O)c2ccccc21" ?
inactive

Recorded call for "NCCOc1ncccc1/C=C1\c2ccccc2-c2ccc([N+](=O)[O-])cc21" ?
active

Recorded call for "O=C(/C=C\n1cnc(-c2cc(C(F)(F)F)cc(C(F)(F)F)c2)n1)N1CC(F)(F)C1" ?
active

Recorded call for "Cn1cncc1-c1c(F)cncc1NC(=O)c1c(N)nn2cc(F)cnc12" ?
active

Recorded call for "COc1cc(-c2cc3ncccc3c3[nH]c(=O)c4cccnc4c23)cc(OC)c1OC" ?
inactive

====

- Tested on: LOX IMVI melanoma
- test_protocol: NCI tumour cell line growth inhibition, 48 h; in the data active = GI50 below about 0.43 µM; inactive = the rest
Answer with one of the outcomes active, inactive

Recorded call for "c1cc[c]([Sn]([O]c2cccc3cccnc23)([O]c2cccc3cccnc23)[c]2ccccc2)cc1" ?
active

Recorded call for "Cc1c(C)c2c(c(C)c1OCC(=O)O)CC[C@@](C)(CCC[C@@H](C)CCC[C@@H](C)CCCC(C)C)O2" ?
inactive

Recorded call for "O=C(Nc1ccc2c(c1)OCCO2)C(=O)c1c[nH]c2ccccc12" ?
inactive

Recorded call for "C[C@H](NC(=O)c1c(C(F)F)nn(C)c1Oc1cccc(C(F)(F)F)c1)c1ccc(C(=O)O)cc1" ?
inactive

Recorded call for "CCc1nn2ncccc2c1-c1ccnc(NC2CC2)n1" ?
inactive

Recorded call for "CCN(CC)c1ccc(/C=N/NC(=O)CSc2nc3ccccc3c(=O)n2Cc2ccc(S(N)(=O)=O)cc2)c(O)c1" ?
active

Recorded call for "CC(=O)O[C@H](C[C@H](C(C)C)N(C)C(=O)[C@@H](NC(=O)[C@H]1CCCCN1C)C(C)C)c1cccc(C(=O)N[C@@H](Cc2ccccc2)C[C@H](C)C(=O)O)n1" ?
active

====

- Tested on: NCI-H460 lung
- test_protocol: NCI tumour cell line growth inhibition, 48 h
Where a SMILES comes first, the peptide text is derived from it. The star is where a group is joined. OSu = O=C1CCC(=O)N1O*
Consider the following compounds; for each one, report its TGI.

Write down TGI measured for item Cc1ccc(S(=O)(=O)NC(=O)NC(CCC(N)=O)C(=O)O)cc1 (stereo not given)
> 100 µM

Write down TGI measured for item "C/C(O)=C(\C=NC(=S)c1ccncc1)C(=O)Nc1ccccc1C"
> 100 µM

Write down TGI measured for item COc1cc(CN(c2ccc(C)cc2)C2OC(=O)c3ccccc32)cc(OC)c1OC (stereo not given)
> 100 µM

Write down TGI measured for item "CCn1c(=N)sc2nc3ccccc3n2c1=O"
> 100 µM

Write down TGI measured for item "O=c1c2c3c(sc2nc2n1N=CN(c1ccc(F)cc1)C2)CCCC3"
> 100 µM

Write down TGI measured for item NCCCCC(NC(=O)C(N)Cc1ccc(O)cc1)C(=O)NC(Cc1ccc(O)cc1)C(=O)NC(CCCCN)C(=O)ON1C(=O)CCC1=O (stereo not given) (H-YKYK-OSu; configuration not given here)
> 100 µM

Write down TGI measured for item C=C(CO)CC(/C=C(\C)CC/C=C(\C)CCl)OC(C)=O (stereo not given)
> 100 µM

Write down TGI measured for item "CCOc1cc(-c2nc3cc(F)ccc3s2)ccc1O"
34.9 µM

Write down TGI measured for item "COc1cc(-c2nccc3cc4c(cc23)OCO4)cc(OC)c1OC"
> 100 µM

Write down TGI measured for item COc1cc(C2c3cc4c(cc3[C@@H](N(C)c3ccc(N(C)C)cc3)C3COC(=O)C23)OCO4)cc(OC)c1O (stereo not given in full)
24.2 µM
